# System: FOLR1-positive Igrov1 cells
# assay-details: Secondary antibody cell killing assay (anti-human Fc nanobody-hemiasterlin) on Igrov1 cells
# Assay type: cell-based
# condition: humanized 6D1 (2060) antibodies
property-measured: Igrov 2° Antibody Cell Killing, Nb-SC239 span (%)
Give bare numbers, in %.

Query: Param item = SRP2060-B01 (antibody, V domains shown, drug conjugate; Synthetic SRP2060-B01, VH; Synthetic H6D1-LC5, VL) VH: EVQLLESGGGLVQPGGSLRLSCALSGFSLSTFGMGVGWVRQATGKGLEWVSHIWWDDDKYYHPALKGRFTISKDNSKNTVHLQMNSLRAEDTAVYYCGRNHFPHYYGSSHWYFNVWGQGTTVTVSS VL: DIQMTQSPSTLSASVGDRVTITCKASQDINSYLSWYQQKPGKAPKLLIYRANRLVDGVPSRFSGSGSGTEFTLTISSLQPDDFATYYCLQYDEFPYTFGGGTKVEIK ; retrieve measured Igrov 2° Antibody Cell Killing, Nb-SC239 span.
Response: 76
